assay: In vivo pharmacokinetic study of GK-667 in rabbits, noncompartmental analysis; set-up: species or system rabbit; settings: male, New Zealand White, rabbit, plasma, iv; rabbits n = 6, GK-667 5 mg/kg i.v., NCA
measurement-kind: AUC(0-t) (µM·h)
Write the value in µM·h as a bare number.

# query: AUC(0-t) of entry C[C@H]([C@H](C)N(CC(N)=O)CC(=O)O)N(CC(N)=O)CC(=O)O [ICRF-193met]
2.6

###

experiment: Solubility and stability of the GK-667 dosing solution in saline; format: physicochemical; details: saline (sodium chloride 0.9%)
measurement-kind: solubility

Record request: solubility value, item "C[C@H]([C@H](C)N1CC(=O)N(COC(=O)CN)C(=O)C1)N1CC(=O)N(COC(=O)CN)C(=O)C1"
≥ 5000 µg/mL

###

test: In vivo pharmacokinetic study of GK-667 in rabbits, noncompartmental analysis; set-up: species or system rabbit; settings: male, New Zealand White, rabbit, plasma, iv; rabbits, GK-667 5 mg/kg i.v., 5th min; read-out: mean plasma concentration of the prodrug
measurement-kind: concentration at 5 min (nM)
# number only, unit nM dropped from output

concentration at 5 min for "C[C@H]([C@H](C)N1CC(=O)N(COC(=O)CN)C(=O)C1)N1CC(=O)N(COC(=O)CN)C(=O)C1" ?
2700
